Data origin: patent US8628767B2

Each entry below lists one item and its recorded rate of enzymatic cleavage by T. vaginalis PNP value.
# Tested on: T. vaginalis PNP
# TEST: Substrate cleavage by wild-type Tv-PNP (HPLC)
# Assay type: biochemical, Trichomonas vaginalis
# CONDITION SUMMARY: 100 micromolar substrate, HPLC separation of base from nucleoside

Answered examples (4):
NC[C@H]1O[C@@H](n2cnc3c(N)ncnc32)[C@H](O)[C@@H]1O = 4,200 nanomoles per milligrams per hour
Nc1nc(F)nc2c1ncn2[C@@H]1O[C@@H](CO)[C@@H](O)[C@H]1O = 28,200 nanomoles per milligrams per hour
Cc1ncnc2c1ncn2[C@@H]1C[C@H](O)[C@@H](CO)O1 = <8 nanomoles per milligrams per hour
Nc1ncnc2c1ncn2[C@@H]1O[C@H](CO)C[C@H]1O [3′-deoxyadenosine (cordycepin), 3′-deoxyadenosine, reference compound] = 2,000 nanomoles per milligrams per hour

// next item, rate of enzymatic cleavage by T. vaginalis PNP requested
Look up rate of enzymatic cleavage by T. vaginalis PNP: Nc1nc2c(ncn2[C@@H]2O[C@H](CO)[C@@H](O)[C@H]2O)c(=O)[nH]1 [Guanosine, reference compound]
14,000 nanomoles per milligrams per hour
